Tested on: IL-6-GFP PC-9
Test: cell viability (CCK-8 OD) relative to DMSO control (fraction of control); higher = more viable cells
Settings: compound concentration: 10 uM; treatment time: 48 h

| Molecule | cell viability |
| --- | --- |
| Nc1ncn(C2OC(CO)C(O)C2O)c(=O)n1 (centres undefined) | 0.895 |
| O=c1ccc2ccc(O)c(O)c2o1 | 1.17 |
| C[Se]CC[C@H](N)C(=O)O | 1.28 |
| CCCCOc1ccc(CC(=O)NO)cc1 | 0.928 |
| COc1cc(-c2coc3cc4c(c(OC)c3c2=O)OCO4)cc(OC)c1OC | 1.04 |
| COC(=O)c1cc(OC)c2c(c1-c1c(C(=O)OC)cc(OC)c3c1OCO3)OCO2 [Bifendate] | 1.25 |
| Cc1cn(-c2cc(NC(=O)c3ccc(C)c(Nc4nccc(-c5cccnc5)n4)c3)cc(C(F)(F)F)c2)cn1 | 1.14 |
| CCCCC1C(=O)N(c2ccccc2)N(c2ccccc2)C1=O | 1.25 |
| CC(C)=CCC/C(C)=C/CC/C(C)=C/CCC(=O)OC/C=C(\C)CCC=C(C)C [Gefarnate] | 1.06 |
